assay: Cmax in CD-1 mouse at 50 mg/kg, po and measured up to 24 hrs by LC/MS-MS analysis; format: ADME, organism-based; set-up: route oral, dose 50 mg/kg, time <=24; conditions: in vivo
reported.property: Cmax (ng/mL)
Write the number in ng/mL without appending the unit.

structure.smiles: Cc1cnc(C#Cc2cc(-c3nn(-c4nc(C(=O)O)cs4)c(CC4CC4)c3Cc3ccc(S(N)(=O)=O)c(F)c3)ccc2F)s1
unit.spec: ng/mL
value.observed: 2030
--
structure.smiles: Cc1ncc(C#Cc2cc(-c3nn(-c4nc(C(=O)O)cs4)c(CC4CC4)c3Cc3ccc(S(N)(=O)=O)c(F)c3)ccc2F)s1
unit.spec: ng/mL
value.observed: 1820
--
structure.smiles: Cc1ccc(C#Cc2cccc(-c3nn(-c4nc(C(=O)O)cs4)c(CC4CC4)c3Cc3ccc(S(N)(=O)=O)c(F)c3)c2)s1
unit.spec: ng/mL
value.observed: 8830

What does the data say about its Cmax? Entry: `NS(=O)(=O)c1ccc(Cc2c(-c3ccc(F)c(/C=C/C4CCCC4)c3)nn(-c3nc(C(=O)O)cs3)c2CC2CC2)cc1F`
1200

----------
Here, each record is paired with measured half-life at 1 µM data.
assay: Half life in rat liver microsomes at 1 uM in presence of NADPH by LC-MS/MS; assay type: ADME, Microsome

structure.smiles: Cc1ccc(C#Cc2cccc(-c3nn(-c4nc(C(=O)O)cs4)c(CC4CC4)c3Cc3ccc(S(N)(=O)=O)c(F)c3)c2)s1
reported.property: half-life at 1 µM
value.observed: > 2 h

Please look at the following compound next.
Return reported half-life at 1 µM; argument: `Cc1ccc(C#Cc2cc(-c3nn(-c4nc(C(=O)O)cs4)c(CC4CC4)c3Cc3ccc(S(N)(=O)=O)c(F)c3)ccc2F)s1`
> 2 h

----------
target: L-lactate dehydrogenase A chain (Homo sapiens); experiment: Inhibition of LDHA in human A673 cells assessed as decrease in lactate production incubated for 2 hrs by lactate oxidase-coupled fluorescence based assay; format: cell-based
reported.property: IC50
Hey, just the number and the unit after it is fine.

structure.smiles: NS(=O)(=O)c1ccc(Cc2c(-c3ccc(F)c(C#Cc4cccs4)c3)nn(-c3nc(C(=O)O)cs3)c2CC2CC2)cc1F
value.observed: 438 nM
--
structure.smiles: Cc1ncc(C#Cc2cccc(-c3nn(-c4nc(C(=O)O)cs4)c(CCC4CC4)c3Cc3ccc(S(N)(=O)=O)c(F)c3)c2)s1
value.observed: 434 nM
--
structure.smiles: NS(=O)(=O)c1ccc(Cc2c(-c3ccc(F)c(C#CCN4CCOCC4)c3)nn(-c3nc(C(=O)O)cs3)c2CC2CC2)cc1F
value.observed: 15300 nM

Here is another compound to look at.
// returns reported IC50 for input `NS(=O)(=O)c1ccc(Cc2c(-c3ccc(F)c(C#CC4CC4)c3)nn(-c3nc(C(=O)O)cs3)c2CC2CC2)cc1F`
695 nM

----------
biological target: UniProtKB P00338; assay: Inhibition of recombinant human LDHA using sodium pyruvate as substrate preincubated for 5 mins followed by diaphorase/resazurin addition and measured after 20 mins by fluorescence based assay
reported.property: IC50 (nM)
Please give a number only; it is taken to be in nM.

What value of IC50 has been reported for the following molecule? NS(=O)(=O)c1ccc(Cc2c(-c3ccc(F)c(C#CC4CCOC4)c3)nn(-c3nc(C(=O)O)cs3)c2CC2CC2)cc1F (configuration not stated)
7

Which IC50 value is on record for `Cc1nc(C#Cc2cccc(-c3nn(-c4nc(C(=O)O)cs4)c(CCC4CC4)c3Cc3ccc(S(N)(=O)=O)c(F)c3)c2)cs1` ?
24

Which IC50 reading was recorded for the molecule `Cc1cnc(C#Cc2cccc(-c3nn(-c4nc(C(=O)O)cs4)c(CC4CC4)c3Cc3ccc(S(N)(=O)=O)c(F)c3)c2)o1` ?
12
